B1: 2K2A (parent)
chain: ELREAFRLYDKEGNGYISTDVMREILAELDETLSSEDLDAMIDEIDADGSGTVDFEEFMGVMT

Variants of: B1
test_protocol: folding stability dG (cDNA display proteolysis); higher = more stable
test_settings: PBS, room temperature
Each entry below carries its recorded folding stability dG.
Report the value in kcal/mol with no unit label.

# example entries with known answers
variant_description	recorded_metric	endpoint_value
L8N	folding stability dG	1.85
R23K	folding stability dG	1.69
A5W	folding stability dG	2.97
E31C	folding stability dG	1.92

Give the reported value of folding stability dG for this record: E24I
2.29

Give the reported value of folding stability dG for this record: E57I
1.97

Give the reported value of folding stability dG for this record: R23V
-0.067

Give the reported value of folding stability dG for this record: S50C
1.39

Sourced from the MegaScale stability set (Tsuboyama et al. 2023)
